Source of measurements: ChEMBL document CHEMBL1157833

Please provide measured IC50 for the entries that follow.
- system-under-test: Vascular endothelial growth factor receptor 2 (Homo sapiens)
- Sequence (P35968 whole entry): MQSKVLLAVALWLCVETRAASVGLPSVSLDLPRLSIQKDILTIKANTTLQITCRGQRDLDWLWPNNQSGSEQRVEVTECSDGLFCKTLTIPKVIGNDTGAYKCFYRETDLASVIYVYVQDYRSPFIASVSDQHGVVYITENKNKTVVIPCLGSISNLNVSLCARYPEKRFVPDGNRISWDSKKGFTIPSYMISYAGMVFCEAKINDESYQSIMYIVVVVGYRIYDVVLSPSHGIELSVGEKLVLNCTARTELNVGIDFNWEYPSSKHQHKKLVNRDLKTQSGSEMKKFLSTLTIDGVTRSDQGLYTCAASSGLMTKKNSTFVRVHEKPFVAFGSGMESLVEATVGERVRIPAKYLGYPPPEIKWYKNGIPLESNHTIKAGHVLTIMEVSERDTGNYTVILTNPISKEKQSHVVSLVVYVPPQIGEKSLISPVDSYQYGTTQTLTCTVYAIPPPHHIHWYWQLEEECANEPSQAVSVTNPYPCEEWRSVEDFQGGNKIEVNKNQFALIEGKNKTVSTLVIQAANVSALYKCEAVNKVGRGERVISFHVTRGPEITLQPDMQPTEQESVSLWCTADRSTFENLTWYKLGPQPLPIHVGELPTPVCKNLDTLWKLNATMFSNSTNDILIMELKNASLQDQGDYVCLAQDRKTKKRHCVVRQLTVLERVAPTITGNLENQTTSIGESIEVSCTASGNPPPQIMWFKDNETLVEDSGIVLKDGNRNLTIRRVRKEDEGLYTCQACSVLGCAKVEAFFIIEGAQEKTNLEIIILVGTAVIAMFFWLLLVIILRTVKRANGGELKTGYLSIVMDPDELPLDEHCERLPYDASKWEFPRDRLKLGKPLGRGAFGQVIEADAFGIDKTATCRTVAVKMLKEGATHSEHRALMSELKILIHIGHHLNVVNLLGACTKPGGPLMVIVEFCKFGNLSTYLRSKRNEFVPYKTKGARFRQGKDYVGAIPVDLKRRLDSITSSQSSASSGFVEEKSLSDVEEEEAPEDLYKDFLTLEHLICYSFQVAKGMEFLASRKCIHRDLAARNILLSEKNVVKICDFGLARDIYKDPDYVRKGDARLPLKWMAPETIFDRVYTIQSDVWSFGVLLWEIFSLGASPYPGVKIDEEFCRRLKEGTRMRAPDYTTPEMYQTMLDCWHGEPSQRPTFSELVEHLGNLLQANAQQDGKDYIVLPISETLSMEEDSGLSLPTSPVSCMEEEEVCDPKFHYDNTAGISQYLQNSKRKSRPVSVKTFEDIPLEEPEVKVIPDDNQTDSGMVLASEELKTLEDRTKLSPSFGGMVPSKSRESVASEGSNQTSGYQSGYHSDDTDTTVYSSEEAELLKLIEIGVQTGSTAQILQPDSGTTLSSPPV
- assay-name: Noncompetitive inhibition of VEGFR2 after 30 mins by chemiluminescence ELISA in presence of 50 uM ATP

Entry NCCc1cn(Cc2ccc(-c3cccc(C(F)(F)F)c3)cc2)c2ccc(OCCc3ccc(O)cc3)cc12 : reported IC50 = ?
1.48 µM

Entry NC1CCc2c(c3cc(OCCc4ccc(O)cc4)ccc3n2CCCCCc2ccccc2)C1 (configuration not stated) : reported IC50 = ?
1.09 µM

* * *

- system-under-test: UniProt P08069
- assay-name: Noncompetitive inhibition of IGF1R after 30 mins by chemiluminescence ELISA in presence of 50 uM ATP
Please provide measured IC50 for the entries that follow.
Give the value, in units of nM, as a plain number.

Entry NC1CCc2c(c3cc(OCCc4ccc(O)cc4)ccc3n2CCCCCc2ccccc2)C1 (configuration not stated) : reported IC50 = ?
990

Entry NCCc1cn(Cc2ccc(-c3cccc(C(F)(F)F)c3)cc2)c2ccc(OCCc3ccc(O)cc3)cc12 : reported IC50 = ?
1060

* * *

Please provide measured IC50 for the entries that follow.
Give the value, in units of nM, as a plain number.

Notebook entry, Epidermal growth factor receptor (Homo sapiens, UniProt P00533) assay: IC50 of NC1CCc2c(c3cc(OCCc4ccc(O)cc4)ccc3n2CCCCCc2ccccc2)C1 (configuration not stated) = ?
1010

Notebook entry, Epidermal growth factor receptor (Homo sapiens, UniProt P00533) assay: IC50 of NCCc1cn(Cc2ccc(-c3cccc(C(F)(F)F)c3)cc2)c2ccc(OCCc3ccc(O)cc3)cc12 = ?
1110

* * *

- system-under-test: Vascular endothelial growth factor receptor 3 (Homo sapiens)
- Sequence (P35916 whole entry): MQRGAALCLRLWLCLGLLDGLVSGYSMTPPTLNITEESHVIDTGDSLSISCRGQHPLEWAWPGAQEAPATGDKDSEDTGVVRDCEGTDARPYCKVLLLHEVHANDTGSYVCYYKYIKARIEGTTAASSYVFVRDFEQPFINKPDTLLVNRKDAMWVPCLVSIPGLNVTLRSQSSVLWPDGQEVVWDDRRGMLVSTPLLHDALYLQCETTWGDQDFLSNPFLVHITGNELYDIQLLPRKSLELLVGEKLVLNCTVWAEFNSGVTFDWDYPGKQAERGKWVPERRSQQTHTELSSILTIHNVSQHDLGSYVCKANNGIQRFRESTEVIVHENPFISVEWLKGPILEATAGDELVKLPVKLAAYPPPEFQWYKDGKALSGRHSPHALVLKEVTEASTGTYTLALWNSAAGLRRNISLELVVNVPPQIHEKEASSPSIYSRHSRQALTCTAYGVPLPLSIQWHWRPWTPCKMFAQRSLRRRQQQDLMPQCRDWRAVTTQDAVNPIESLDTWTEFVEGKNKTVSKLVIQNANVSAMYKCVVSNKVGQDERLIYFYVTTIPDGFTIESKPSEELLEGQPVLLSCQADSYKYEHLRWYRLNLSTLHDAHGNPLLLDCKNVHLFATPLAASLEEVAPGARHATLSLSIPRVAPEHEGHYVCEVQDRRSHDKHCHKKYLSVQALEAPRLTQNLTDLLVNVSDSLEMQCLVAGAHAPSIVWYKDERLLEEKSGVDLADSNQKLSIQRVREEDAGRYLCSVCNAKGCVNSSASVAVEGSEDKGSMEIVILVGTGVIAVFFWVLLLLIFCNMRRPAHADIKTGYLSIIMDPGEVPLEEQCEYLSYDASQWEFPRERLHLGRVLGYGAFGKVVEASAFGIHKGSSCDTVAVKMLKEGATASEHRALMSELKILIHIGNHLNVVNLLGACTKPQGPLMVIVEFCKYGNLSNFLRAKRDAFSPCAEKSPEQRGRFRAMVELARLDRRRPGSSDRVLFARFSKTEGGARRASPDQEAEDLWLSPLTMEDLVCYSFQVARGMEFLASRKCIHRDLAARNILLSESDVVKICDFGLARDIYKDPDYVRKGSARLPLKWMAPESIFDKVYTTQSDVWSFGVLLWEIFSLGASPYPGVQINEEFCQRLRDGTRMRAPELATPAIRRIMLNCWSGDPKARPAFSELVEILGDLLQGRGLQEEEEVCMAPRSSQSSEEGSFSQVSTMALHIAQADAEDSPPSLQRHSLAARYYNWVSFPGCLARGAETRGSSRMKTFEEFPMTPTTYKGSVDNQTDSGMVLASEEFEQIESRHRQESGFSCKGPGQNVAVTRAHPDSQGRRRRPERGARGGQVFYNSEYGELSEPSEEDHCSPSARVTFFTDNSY
- assay-name: Inhibition of VEGFR3 after 30 mins by chemiluminescence ELISA
Please provide measured pIC50 for the entries that follow.
pIC50 here: minus log base 10 of the concentration, concentration in moles per litre.

Notebook entry, Vascular endothelial growth factor receptor 3 (Homo sapiens) assay: pIC50 of NCCc1cn(CCCCCc2ccccc2)c2ccc(OCCc3ccc(O)cc3)cc12 = ?
5.57

Notebook entry, Vascular endothelial growth factor receptor 3 (Homo sapiens) assay: pIC50 of COc1ccc(CCCCCn2c3c(c4cc(OCCc5ccc(O)cc5)ccc42)CC(N)CC3)cc1 (stereo not drawn) = ?
5.74

Notebook entry, Vascular endothelial growth factor receptor 3 (Homo sapiens) assay: pIC50 of NC1CCc2c(c3cc(OCCc4ccc(O)cc4)ccc3n2CCCc2ccccc2)C1 (stereo not drawn) = ?
5.55

Notebook entry, Vascular endothelial growth factor receptor 3 (Homo sapiens) assay: pIC50 of NC1CCc2[nH]c3ccc(OCCc4ccc(O)cc4)cc3c2C1 (stereo not drawn) = ?
4.46

Notebook entry, Vascular endothelial growth factor receptor 3 (Homo sapiens) assay: pIC50 of COc1ccc(CCCCCn2cc(CCN)c3cc(OCCc4ccc(O)cc4)ccc32)cc1 = ?
5.69

* * *

- system-under-test: Insulin-like growth factor 1 receptor (Homo sapiens)
- Sequence (P08069 31-736 limits assumed): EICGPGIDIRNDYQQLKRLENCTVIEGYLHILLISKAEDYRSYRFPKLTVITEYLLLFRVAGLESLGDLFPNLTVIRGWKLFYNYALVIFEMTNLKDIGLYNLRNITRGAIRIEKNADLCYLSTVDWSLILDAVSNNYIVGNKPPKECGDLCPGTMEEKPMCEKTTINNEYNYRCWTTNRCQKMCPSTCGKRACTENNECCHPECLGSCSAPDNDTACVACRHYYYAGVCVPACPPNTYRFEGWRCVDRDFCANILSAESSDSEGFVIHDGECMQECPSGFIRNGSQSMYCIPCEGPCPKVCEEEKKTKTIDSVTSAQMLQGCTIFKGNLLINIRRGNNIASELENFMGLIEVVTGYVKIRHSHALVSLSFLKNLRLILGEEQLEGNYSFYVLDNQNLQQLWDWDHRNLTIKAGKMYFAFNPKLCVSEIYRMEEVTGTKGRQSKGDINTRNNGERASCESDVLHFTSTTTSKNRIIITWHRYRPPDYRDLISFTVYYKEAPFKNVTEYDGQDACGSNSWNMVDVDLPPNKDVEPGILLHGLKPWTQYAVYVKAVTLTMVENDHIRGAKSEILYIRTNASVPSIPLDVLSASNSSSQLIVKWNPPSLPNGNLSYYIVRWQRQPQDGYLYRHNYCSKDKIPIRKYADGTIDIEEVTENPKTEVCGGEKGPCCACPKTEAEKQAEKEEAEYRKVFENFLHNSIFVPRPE
- Sequence (P08069 741-1367 limits assumed): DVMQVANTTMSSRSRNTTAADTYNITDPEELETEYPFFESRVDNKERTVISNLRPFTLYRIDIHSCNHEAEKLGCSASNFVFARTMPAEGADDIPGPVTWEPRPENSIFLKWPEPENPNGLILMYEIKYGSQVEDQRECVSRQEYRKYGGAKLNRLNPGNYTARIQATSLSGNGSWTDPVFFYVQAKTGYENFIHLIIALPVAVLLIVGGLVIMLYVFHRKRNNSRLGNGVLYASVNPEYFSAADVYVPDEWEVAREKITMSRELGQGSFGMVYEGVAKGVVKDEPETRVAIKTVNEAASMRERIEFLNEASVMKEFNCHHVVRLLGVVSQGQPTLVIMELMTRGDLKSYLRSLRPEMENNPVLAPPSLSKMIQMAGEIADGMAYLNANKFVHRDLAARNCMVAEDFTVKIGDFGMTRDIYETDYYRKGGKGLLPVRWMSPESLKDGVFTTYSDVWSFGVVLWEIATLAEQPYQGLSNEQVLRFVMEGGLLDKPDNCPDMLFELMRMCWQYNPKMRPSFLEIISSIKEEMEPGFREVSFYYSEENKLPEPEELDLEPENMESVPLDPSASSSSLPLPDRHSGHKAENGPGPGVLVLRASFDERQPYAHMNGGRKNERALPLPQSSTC
- assay-name: Inhibition of IGF1R after 30 mins by chemiluminescence ELISA
Where a name gives a salt, the structure may show the parent alone.
Sorting guide: entries reporting IC50 beneath 3000 nM go in the Criterion met pile, the rest go in the Criterion not met pile.

Input NC1CCc2c(c3cc(OCCc4ccc(O)cc4)ccc3n2CCCCCc2ccc(C(F)(F)F)cc2)C1 (stereo not given) ; condition: IC50 strictly below 3000 nM. Does it hold?
Criterion not met

Input COc1ccc(CCCCCn2cc(CCN)c3cc(OCCc4ccc(O)cc4)ccc32)cc1 ; condition: IC50 strictly below 3000 nM. Does it hold?
Criterion not met

Input NCCc1c[nH]c2ccc(O)cc12 [SEROTONIN HYDROCHLORIDE] ; condition: IC50 strictly below 3000 nM. Does it hold?
Criterion not met

Input NCCc1cn(Cc2ccc(-c3ccccc3)cc2)c2ccc(OCCc3ccc(O)cc3)cc12 ; condition: IC50 strictly below 3000 nM. Does it hold?
Criterion met

Input NC1CCc2c(c3cc(OCCc4ccc(O)cc4)ccc3n2CCCCCc2ccccn2)C1 (stereo not given) ; condition: IC50 strictly below 3000 nM. Does it hold?
Criterion met

Input NC1CCc2[nH]c3ccc(OCCc4ccc(O)cc4)cc3c2C1 (stereo not given) ; condition: IC50 strictly below 3000 nM. Does it hold?
Criterion not met

Input COCCc1ccc(O)cc1 ; condition: IC50 strictly below 3000 nM. Does it hold?
Criterion not met

Input NC1CCc2c(c3cc(OCCc4ccc(O)cc4)ccc3n2CCCc2ccccc2)C1 (stereo not given) ; condition: IC50 strictly below 3000 nM. Does it hold?
Criterion met

Input CSc1ccc(CCCCCn2cc(CCN)c3cc(OCCc4ccc(O)cc4)ccc32)cc1 ; condition: IC50 strictly below 3000 nM. Does it hold?
Criterion met
